B1: TPR 5TU (parent)
chain: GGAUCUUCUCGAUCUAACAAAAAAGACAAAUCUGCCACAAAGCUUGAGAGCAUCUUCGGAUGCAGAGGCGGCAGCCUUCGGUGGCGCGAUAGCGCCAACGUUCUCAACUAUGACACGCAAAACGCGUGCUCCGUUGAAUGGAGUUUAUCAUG

- Variants of: B1
- procedureSummary: polymerase ribozyme fitness, log enrichment relative to wild type (log ratio); higher = more active; in vitro selection for triplet polymerase activity
This sample holds only a part of the variants without activity.
Reported values of polymerase ribozyme fitness (log ratio) for individual entries
Just the number, please, no unit attached.

Recorded polymerase ribozyme fitness (log ratio), per entry:
>>> observed("A21U G48C G83A C118G U145A")
-2.76
>>> observed("C57U C103G")
-1.7
>>> observed("G46A G83A")
-0.911
>>> observed("A23G C35U U56A C85A C118U G124U")
-4.08

With those in mind, consider the next variant.
# input State the recorded polymerase ribozyme fitness (log ratio) for this entry: C32A C38U U55A G94A G126C
# output -3.92

Data provenance is the RNAGym collection of RNA variant scans (doi:10.1073/pnas.2313332121).
